For each record, write down the corresponding PBM binding z-score.
Tested on: RARb homodimer (NR concentration 270 nM)
test details: PBM binding z-score (relative to random genomic background probes); higher = stronger binding; sequences stand for … in GC…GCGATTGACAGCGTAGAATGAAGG
Numbers only.

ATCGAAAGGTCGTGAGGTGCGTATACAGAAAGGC; 2.59

// input: 5 sequences below; output: PBM binding z-score for each
1. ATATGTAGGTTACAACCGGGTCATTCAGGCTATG
2. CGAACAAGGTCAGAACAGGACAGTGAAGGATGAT
3. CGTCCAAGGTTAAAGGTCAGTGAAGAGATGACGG
4. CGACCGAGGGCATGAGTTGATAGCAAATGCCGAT
5. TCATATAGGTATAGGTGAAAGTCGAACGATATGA

2.97
3.28
4.52
0.812
0.405

Measured values drawn from the supplement of paper PMC6555819 for this set.
